B1: CAMK2D (parent)
chain: IVRLHDSISEEGFHYLVFDLVTGG

variants of: B1; assay: protein stability index of a GFP-peptide fusion (GPS, HEK-293T) (PSI 1-6); higher = more stable; conditions: c terminus: a fixed tail appended;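 note: lentivirally expressed fusions sorted by FACS into six bins by GFP to DsRed ratio, PSI derived from sequencing read proportions per bin multiplied by bin number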
Classify by measured protein stability index: 1 (yes) if it is equal to or exceeds 2, 0 (no) if it is smaller.

Reference set, count: 2
Challenge: Please tell me: is the variant "IVRLHDSISEEGFHYLVFDLVTGK" at or over 2 in terms of protein stability index?
Response given: 1 (yes)

Challenge: Record "IVRLHDSISEEGFHYYVFDLVTGG" ; criterion: protein stability index no lower than 2. Met?
Response given: 1 (yes)

***
Challenge: Decide: protein stability index of "IVHLHDSISEEGFHYLVFDLVTGG" >= 2?
Response given: 1 (yes)

Challenge: Check the entry "IVRLHDAISEEGFHYLVFDLVTGG" : does protein stability index equal or exceed 2?
Response given: 1 (yes)

Challenge: Assess whether reported protein stability index for "IVRLHDSISEEGFHYLVFDLVTGL" sits at 2 or higher.
Response given: 1 (yes)

Challenge: Form field: protein stability index at least 2? Entry: "IVRLHDSISEEGFMYLVFDLVTGG"
Response given: 1 (yes)

Challenge: Is protein stability index for "IPRLHDSISEEGFHYLVFDLVTGG" at or above 2?
Response given: 0 (no)
